System: UM-UC-3 (Bladder Carcinoma)
Experiment: combination Emax (second highest fraction inhibited in the dose matrix, 72 h); higher = more inhibition; extreme values may be limits of the assay
RESULT TYPE: combination Emax
Answers are plain numbers.

For every item below, please supply its combination Emax.
1. CN(CCO)CC[C@H](CSc1ccccc1)Nc1ccc(S(=O)(=O)NC(=O)c2ccc(N3CCC([C@@H](O)c4ccccc4-c4ccc(Cl)cc4)CC3)cc2)cc1S(=O)(=O)C(F)(F)F [AZD4320] + C[C@@H]1COCCN1C2=NC(=NC(=C2)C3(CC3)[S@](=N)(=O)C)C4=C5C=CNC5=NC=C4 [AZD6738] (first compound max 1 µM, 7x7, partner max 10 µM)
2. Cc1c2c(nn1C)CSCc1cc(n(C)n1)CSc1cc(c3ccccc3c1)OCCCc1c(C(=O)O)n(C)c3c-2c(Cl)ccc13 [AZD5991] + CCN(CCO)CCCOc1ccc2c(Nc3cc(CC(=O)Nc4cccc(F)c4)[nH]n3)ncnc2c1 [AZD2811] (first compound max 1 µM, 7x7, partner max 1 µM)

OUTPUT:
0.7
0.266

For every item below, please supply its combination Emax.
1. Cc1c2c(nn1C)CSCc1cc(n(C)n1)CSc1cc(c3ccccc3c1)OCCCc1c(C(=O)O)n(C)c3c-2c(Cl)ccc13 [AZD5991] + CS(=O)(=O)CCNCc1ccc(-c2ccc3ncnc(Nc4ccc(OCc5cccc(F)c5)c(Cl)c4)c3c2)o1 [Lapatinib] (first compound max 1 µM, 7x7, partner max 10 µM)
2. NC1(C(=O)N[C@@H](CCO)c2ccc(Cl)cc2)CCN(c2ncnc3[nH]ccc23)CC1 [Capivasertib] + C[C@@H]1COCCN1C2=NC(=NC(=C2)C3(CC3)[S@](=N)(=O)C)C4=C5C=CNC5=NC=C4 [AZD6738] (first compound max 10 µM, 7x7, partner max 10 µM)
3. Cc1c2c(nn1C)CSCc1cc(n(C)n1)CSc1cc(c3ccccc3c1)OCCCc1c(C(=O)O)n(C)c3c-2c(Cl)ccc13 [AZD5991] + Cn1cnc2c(F)c(Nc3ccc(Br)cc3Cl)c(C(=O)NOCCO)cc21 [Selumetinib] (first compound max 1 µM, 7x7, partner max 3 µM)
4. CCc1c2c(nc3ccc(O)cc13)-c1cc3c(c(=O)n1C2)COC(=O)[C@]3(O)CC [SN-38] + CN(C)CCCOc1ccc(-c2ccc3ncc4c(c3c2)n(C2CCOCC2)c(=O)n4C)cn1 [AZD0156] (first compound max 0.3 µM, 7x7, partner max 1 µM)
5. COc1cc2c(cc1OCCCCCOc1cc3c(cc1OC)C(=O)N1C=C(C)C[C@H]1C=N3)N=C[C@@H]1CC(C)=CN1C2=O [SG3199] + O=C(c1cc(Cc2n[nH]c(=O)c3ccccc23)ccc1F)N1CCN(C(=O)C2CC2)CC1 [Olaparib] (first compound max 0.001 µM, 7x7, partner max 10 µM)
6. CN(CCO)CC[C@H](CSc1ccccc1)Nc1ccc(S(=O)(=O)NC(=O)c2ccc(N3CCC([C@@H](O)c4ccccc4-c4ccc(Cl)cc4)CC3)cc2)cc1S(=O)(=O)C(F)(F)F [AZD4320] + C[C@@H](Nc1cc(F)cc(F)c1)c1cc(C(=O)N(C)C)cc2c(=O)cc(N3CCOCC3)oc12 [AZD8186] (first compound max 1 µM, 7x7, partner max 3 µM)

OUTPUT:
1: 0.169; 2: 0.53; 3: 0.28; 4: 0.978; 5: 0.132; 6: 0.374
